Reference source for all entries: the supplement of paper PMC10065799

SYSTEM_UNDER_TEST: c-Src SH2;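 also: peptide library displayed on the E. coli surface as eCPX fusions, selected cells deep-sequenced, score is each peptide's frequency after selection divided by its frequency in the input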
MEASUREMENT_NOTES: SH2 binding enrichment of the phosphorylated peptide, bacterial display (enrichment ratio); higher = better substrate or ligand; peptides without Tyr show the background
SH2 binding enrichment vs 0.6: at or above is class 1, below is class 0.

# RESIDUES, CATEGORY
rows = [
    ("SVTCTYYPALN [TP53_Y126_S127Y]", "class 0"),
    ("EQSGSYIWVPA [DLG1_Y895]", "class 1"),
    ("QTLTDYDIRFF [CSNK2A1_Y131_YF]", "class 0"),
    ("SEKIVYGHVDD [ACO2_Y71_L74V]", "class 0"),
    ("HEKRAYICAHP [ACAD9_Y611_L606H]", "class 1"),
    ("TMETKYDNISR [SETDB2_Y477_V473M]", "class 1"),
    ("MFNPYYGLFEY [NEDD4L_Y680]", "class 1"),
    ("VIKDKYPKVRF [APTX_Y209_A212V_YF]", "class 1"),
    ("AISEGYKDFRA [CDA_Y79_V75I]", "class 0"),
    ("DSILVYQRKEQ [USH2A_Y1909_G1911R]", "class 0"),
    ("CRAVKYLQMVR [AVPR2_Y117_G122R]", "class 1"),
    ("KLKRSYPSPDI [USP8_Y717_S718P]", "class 0"),
    ("AVSEGYKDFRA [CDA_Y79]", "class 0"),
    ("GKFHMYVAVWT [F13A1_Y161_R159H]", "class 0"),
    ("VEDPEYAVTQP [STOML2_Y124_L129P]", "class 0"),
    ("FIPFRYPKEFQ [IDS_Y234_H229Y_YF]", "class 0"),
    ("RPGGRYPVARR [SHANK3_Y1569_S1566G]", "class 0"),
    ("QKMADYSNKLF [PDPR_Y104_YF]", "class 0"),
    ("WDLSEYSYKDP [ITGA3_Y237]", "class 1"),
    ("TRSYDYMEGGD [FGF7_Y58]", "class 1"),
    ("SSSAIYDNPNL [DCP1B_Y191]", "class 1"),
    ("PLYRKYWPNHI [GREB1L_Y1560]", "class 1"),
    ("LHSEAYLKFNE [PBRM1_Y1610_I1614N_YF]", "class 0"),
    ("NKKHHYRELPV [ERN2_Y860]", "class 1"),
    ("KMLEKYKERLN [TLK2_Y259]", "class 1"),
    ("IIEDPYYGNDS [ACP1_Y132]", "class 1"),
    ("NTSKMYIPHTD [EXPH5_Y782_D777N]", "class 0"),
    ("EFGEVYKGMLK [EPHA2_Y628]", "class 0"),
    ("KLFYIYTSGTT [SLC27A4_Y245]", "class 0"),
    ("VDASYYGGRGV [ANTXR2_Y381]", "class 0"),
    ("IFLGAYDRFLP [SLC22A5_Y486_V481I_YF]", "class 1"),
    ("QMVRMYASSYM [AVPR2_Y124_G122R]", "class 0"),
    ("AFLEDYFTSTE [SRC_Y522]", "class 0"),
    ("EWQQIYTYDSG [JUP_Y20_T19I]", "class 1"),
    ("QMQNPYSSHSS [MUC13_Y501_R503S]", "class 0"),
    ("NFDRIYIFHLR [MYOF_Y1137_V1136I_YF]", "class 1"),
    ("QCTSHYPEHVC [SART3_Y541_D540H]", "class 1"),
    ("LVMFTYAIFGM [SCN1A_Y1684_I1683T]", "class 0"),
    ("PVQAADQKVVA [HBB_Y131_Y131D]", "class 0"),
    ("FSMGCYEISLG [HMGCL_Y198_YF]", "class 0"),
    ("GNLQENLTRHV [TGFBR2_Y336_Y336N]", "class 0"),
    ("KSIQLYDTPYE [SHB_Y297_G293S]", "class 1"),
    ("HLDRSYSFSFS [PEAR1_Y890_R885H_YF]", "class 0"),
    ("YSPCDYQPCLA [TNS1_Y798_Y796C]", "class 1"),
    ("PVQAAYQQVVA [HBB_Y131_K133Q]", "class 1"),
    ("LLASRYDSPIN [ABLIM1_Y638]", "class 1"),
    ("IPGRFYETGSI [PAX2_Y73_L69P_YF]", "class 1"),
    ("KWRGQYDVAIK [BTK_Y425]", "class 1"),
    ("ARKWGYTVKGI [OAT_Y158]", "class 0"),
    ("KLGDVYVNDAF [PGK1_Y161]", "class 1"),
    ("SRDDDYETIAM [NPY1R_Y347]", "class 1"),
    ("FEPWVYSLSYE [PRKDC_Y647_F649L]", "class 1"),
    ("ENAGYYFRVSA", "class 0"),
    ("IGRWVYPLTPE [EIF2B5_Y319_R315G]", "class 1"),
]
